What TGI was measured for each of the following?
# Tested on: LOX IMVI melanoma
# assay remarks: NCI tumour cell line growth inhibition, 48 h

Past entries and their recorded results:
input: What TGI appears in the records for this compound with LOX IMVI melanoma? Cc1c(N(C)C)ccc2c(=O)c3cccc(CC(=O)O)c3oc12
output: > 100 µM

input: Now this one: O=[N+]([O-])C(=C(Nc1cccc2cccnc12)Nc1cccc2cccnc12)C(Cl)=C(Cl)Cl
output: > 100 µM

input: Now this one: COc1ccc2nc3ccccc3c(NCc3ccc(F)cc3)c2c1
output: 1.71 µM

// batch mode: one TGI value per listed entry
1. C/C(C[n+]1ccccc1)=N\N=C(N)N
2. On1c(-c2ccccc2)c(-c2ccccc2N2CCCC2)c2ccccc21
3. COc1cc(Cl)cc(-c2nn(-c3cccc(NC(=O)c4ccc(N5CCOCC5)c(C(F)(F)F)c4)c3)cc2-c2ccncc2)c1
4. N#Cc1nn(-c2cc(=O)[nH]c3ccc(Cl)cc23)c(N)c1C#N
5. CC1=Cc2cccc(C)c2C(=O)C1=O

output:
1: > 100 µM; 2: > 100 µM; 3: > 100 µM; 4: > 100 µM; 5: 21.5 µM

input: What TGI appears in the records for this compound with LOX IMVI melanoma? COC(=O)C(Cc1ccc2c(c1)CCC2)Cc1ccc2c(c1)CCC2
output: 60.4 µM

###

# System: UACC-257 melanoma
# assay remarks: NCI tumour cell line growth inhibition, 48 h
What TGI was measured for each of the following?

Past entries and their recorded results:
input: Entry Cn1c(SCc2ccc(F)cc2)nnc1C12CC3CC(CC(C3)C1)C2 : reported TGI = ?
output: 91.7 µM

input: Now this one: CCN(CC)CCNc1nc(N)c(C#N)c(C#N)c1C#N
output: > 10 µM

input: Now this one: O=P(O)(O)C(N=C(Nc1ccccc1)Nc1ccccc1)P(=O)(O)O
output: > 100 µM

input: Now this one: COc1ccc(N2C(=O)CC(=O)N(NC(=O)C(C)Oc3ccccc3C)C2=S)cc1 (stereo unspecified)
output: > 100 µM

input: Now this one: NC(N)=N/N=C/c1c(Cl)cccc1Cl
output: 27.3 µM

input: Now this one: COc1ccc(C2c3cn[nH]c3CC3CCCCC32)cc1 (stereo unspecified)
output: 45.9 µM

input: Now this one: Cc1ccc(S(=O)(=O)n2c3c(c4ccccc42)CCN2C[C@H]([C@H](C)Br)CC[C@@H]32)cc1
output: > 100 µM

input: Now this one: Cc1ccc(C)c(NC(=O)c2cccc([N+](=O)[O-])c2O)c1
output: 63 µM

input: Now this one: Cc1nnc(Nc2ccc(NC(=O)Nc3ccc(Cl)cc3)cc2)c2ccccc12
output: 5.3 µM

input: Now this one: CC12CCC(=O)C[C@H]1CCC(OC=O)C2Br (stereo partly specified)
output: > 100 µM

// batch mode: one TGI value per listed entry
1. C[C@H](CCC(=O)O)[C@H]1CC[C@H]2[C@@H]3C(=O)C[C@@H]4C[C@H](O)CC[C@]4(C)[C@H]3C[C@H](O)[C@]12C
2. O=C(O)CN1CCN2CCCCCN(CC1)CCN(CC(=O)O)CC2

output:
1: > 100 µM; 2: > 100 µM

###

# Tested on: HCT-15 colon
# assay remarks: NCI tumour cell line growth inhibition, 48 h
experimental endpoint: TGI

Past entries and their recorded results:
input: What TGI appears in the records for this compound with HCT-15 colon? COC(C)(C)C1(O)CC[C@@H](C)CC1=O (stereo partly drawn)
output: > 100 µM

input: Now this one: CC(NC(=O)Cc1ccccc1)NC(=O)C(C)C(=O)Nc1ccccc1 (stereo not drawn)
output: > 100 µM

Alright, here's another compound for you.
input: What TGI appears in the records for this compound with HCT-15 colon? N#C/C(=C\c1ccc2ccccc2c1)C(=O)c1ccccc1
output: > 100 µM

Where do the numbers come from? From PubChem BioAssay (NCI).
